# System: Nakaseomyces glabratus
# Experiment: Antimicrobial activity against Candida glabrata ATCC 90030 by broth microdilution method
# Type: functional
Property measured: MIC

Exercise: Please supply the value of reported MIC for the item C[C@@H](S[C@H]1CO[C@H](/C=C/c2ccc(C(F)(F)F)cc2)OC1)[C@](O)(Cn1cncn1)c1ccc(F)cc1F
Solution: 1 µg/mL

Exercise: Please supply the value of reported MIC for the item C[C@@H](C[C@H]1CO[C@H](/C=C/C=C/c2ccc(C(F)(F)F)cc2)OC1)[C@](O)(Cn1cncn1)c1ccc(F)cc1F.O=C(O)C(=O)O
Solution: 1 µg/mL

Exercise: Please supply the value of reported MIC for the item C[C@@H](S[C@H]1CO[C@H](/C=C/C=C/c2ccc(C(F)(F)F)cc2)OC1)[C@](O)(Cn1cncn1)c1ccc(F)cc1F.O=C(O)C(=O)O
Solution: 1 µg/mL

Exercise: Please supply the value of reported MIC for the item OC(Cn1cncn1)(Cn1cncn1)c1ccc(F)cc1F
Solution: > 4 µg/mL

Sourced from ChEMBL document CHEMBL1141003
